- PROTOCOL_SUMMARY: Tested for inhibition of [3H]PAF binding to rabbit Platelet activating factor receptor
MEASUREMENT_LABEL: Ki (nM)

[a] COCCOC(=O)C1C(C)=NC(C)=C(C(=O)OCCSC)C1C (centres undefined)
[b] COC(=O)C1C(C)=NC(C)=C(C(=O)OCCSC)C1C (centres undefined)
[c] CCOC(=O)C1C(C)=NC(C)=C(C(=O)OCCSCC)C1C (centres undefined)
[d] COC(=O)C1C(C)=NC(C)=C(C(=O)OCCSc2ccccc2)C1C (centres undefined)
Task: Order the records by Ki, with each subsequent value no larger than the one before. Put the labels in the requested order and write them down.
Output: a, c, b, d
(a: 4410 nM, c: 1000 nM, b: 603 nM, d: 15 nM)
